molecular target: KCNJ5^G151R (Homo sapiens, UniProt P48544, G151R); construct: expressed in transfected cells; experiment: cell-based; type: cell-based; details: 10 μM; ATP level 72 h after induction; uninduced = 100%, induced = 0% effect; first of the two runs (primary screen / hit pick)
Sequence (P48544 whole entry G151R): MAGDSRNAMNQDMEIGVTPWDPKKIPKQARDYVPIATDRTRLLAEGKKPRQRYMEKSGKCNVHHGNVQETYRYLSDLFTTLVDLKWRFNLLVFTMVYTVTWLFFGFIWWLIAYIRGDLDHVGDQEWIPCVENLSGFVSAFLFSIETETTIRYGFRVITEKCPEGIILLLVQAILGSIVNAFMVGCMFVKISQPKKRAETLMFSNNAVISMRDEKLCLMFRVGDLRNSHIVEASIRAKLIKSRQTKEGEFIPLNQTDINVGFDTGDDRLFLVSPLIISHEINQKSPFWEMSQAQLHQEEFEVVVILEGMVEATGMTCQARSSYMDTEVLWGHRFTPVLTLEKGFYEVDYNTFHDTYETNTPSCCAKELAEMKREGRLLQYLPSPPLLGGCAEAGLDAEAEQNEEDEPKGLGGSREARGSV
experimental_endpoint: % effect (1) (%)
Reply with just the number (in %).

A selection of reference data follows.
# structure_notation, % effect (1) / %
records = [
    ("Cc1ccc(NC(=O)c2c(C)oc3ccc(O)c(CN4CCCCCC4)c23)cc1", 36.0),
    ("CCN1CCN(Cc2c(O)ccc3oc(C)c(C(=O)Nc4cccc(C(F)(F)F)c4)c23)CC1", 41.7),
    ("COc1ccc(NC(=O)c2c(C)oc3ccc(O)c(CN4CCCCCC4)c23)cc1Cl", 35.1),
]

# evaluate next
GET /values?readout=% effect (1)&item= COc1cc(-c2ccc(NC(=O)NC3CC3)c(OC)c2)ccc1NC(=O)NC1CC1 48.0

Values compiled from patent US11484543B2.
